# credit: the DeepSol protein solubility set

experiment: soluble on expression in E. coli; label from the status in PepcDB or PDB records

- sequence string: "AHHHHHHASAKWVCKICGYIYDEDAGDPDNGISPGTKFEELPDDWVCPICGAPKSEFEKLEDGSFKLYSLAREFARDLLFEINGDVVTLSIKGVLLANTSSTSSNFSIFEVSENEFILAIQTSGYVVYLGIEAEEEIEEEVYPSLVRIIISEVMPIINNLVQVAKELSYKGADILLDDNMSSSLREAMYNLLLKHKKGKSPYEQVEVA"
  soluble on expression in E. coli: "soluble"
- sequence string: "LRVFSSDGKLIAEFGEMRRTPIRFAEIPPNFINALLSAEDDNFANHYGVDPSSLMRAATQLVKSGHIQSGGSTITMQVAKNFFLTSERSFSRKTTEILLALQIERQLTKDEILELYVNKIYLGNRAYGIEAAAQVYYGKSIRDVSLAQMAMIAGLPKAPSRFNPLANA"
  soluble on expression in E. coli: "not soluble"
- sequence string: "MSLPEHTPSDRLALDAMLGKLATYLRMCGYDTAYALDRDAEADDDLLDIAEREDRLVITRDSDLATRAPESVLLSEREIEDQLRELADAGFRLSLAPEPDYCGVCNSPVEEVDPVEPTPEYAPSAGDERVWRCTDCGQHFWKGSHWASVEATLEDVEGHHHHHH"
  soluble on expression in E. coli: "soluble"
- sequence string: "MGSDKIHHHHHHMSTPGSTPPPSVADQPHPLPLANGHPISGATADAAAQWLTLLMSDEMTDSDYQCWQQWRAAHPDHERAWQHIEAVTARFRELPSTAAYKSLSPLTNPVSAGKPGSPGRRKAMGTLLWLGTAGVGSMLVSRTQIWQQTVADYRTGTGEQRAIYLADGTHIMLNTYSAIDVAFDAQHRTIRLITGDILITTHPVHTPISDPRPFIVETAEGRIRALGTRFTVSQRKGRTHVAVLEHAVEVTPAAAPDRQYILPAGQQLSFTRHTLNNATTLDKQTTGWTQGQIIADNIRLGDFITDLGRYRTGLLRCDPAVAELRLSGVFPLDDTDRILETLPSVLPVRVRLRTRYWVIVEAAS"
  soluble on expression in E. coli: "not soluble"
- sequence string: "MGSDKIHHHHHHMLVYIGNGHYCYSNSTAMFLSSIGENVSPQLVEILTGVGLGAMIEYEKNLYFSMRDPDDGINYALNILGFTAEEHQQASDLDDPFPLLKQQIKQNPVILGPLDMGELTYHPNHKNLNGSDHYVLGYQMDNENIYVQDPAGFPFVPLSLDQFKKAWMAERIPYRKGINKYWSTAKKVVTLDNNEIYERAIDYFKRTYRKFEKVDIGLIGREAICFYADQLLNAPITADTIRHTTFFLFQLSARRANDYAMYFKDRHSHLSVLKTEQAKVFGICHSMSVNKDWKGISEKLMKLADLEDNFRLELLKVGY"
  soluble on expression in E. coli: "not soluble"
- sequence string: "MDQKQLQALVEQISIRVFGKPFRHTAFFNPRLRTTGGRYMLQTHNIELNKKHYEQFGEEELIAIIKHELCHYHLHLEGKGYRHRDRDFRELLQKVGAPRYCRPLARNTKAPKTIYTYICTSCGLTYRRKRRINIDRYVCGRCRSKLKRS"
  soluble on expression in E. coli: "not soluble"
- sequence string: "GSFLPNSEQQKSVDIVFSSPQDLTVSLIPVSGLKAGKNAPSAKIAKLVVNSTTLKEFGVRGISNNVVDSTGTAWRVAGKNTGKEIGVGLSSDSLRRSDSTEKWNGVNWMTFNSNDTLDIVLTGPAQNVTADTYPITLDVVGYQP"
  soluble on expression in E. coli: "soluble"
- sequence string: "MYNDELIESSKIKWQLFLKGDDDAYAWLYSRYVQQLYQYGCRFTTDTEMVKDCVQDVFVNVYRQKDRYSSPPDNVKIYLMSSLRNSIFNVFNKGNLHDTYISNINYEFDLSVEEKLIETEDETSQKHTVAHLLNTLSPRQREIIYYRFFEGLDYSAICELMGLNYQSAYNLLQRSLSRLREMYGILPFFFLF"
  soluble on expression in E. coli: "not soluble"
- sequence string: "AIASAADDVNKKRKTAKEVEQEECEIYQNVVFNSIVDSNSKHELVDPSLQKLGAKSRGKVTFLLEQASLELVKIDRKWEILNGDEHQQYMKRKNLNPADYRPDIVHQCVLSLLDSPLNKAGYLDLYIHTTNNVLIKVNPQTRIPRTLKRFCGLTVQLLQDLKIFGHGLNKPLLQIIQNPITNHLPDMCWKTVCSYNCENLMSPHKHAQEVLKKDMNILYVIGAMAHGKIVEEWADEELKISSFPLSASAVCHRICSAYEILYEVL"
  soluble on expression in E. coli: "soluble"
- sequence string: "MKHGILVAYKPKGPTSHDVVDEVRKKLKTRKVGHGGTLDPFACGVLIIGVNQGTRILEFYKDLKKVFWVKMRLGLITETFDITGEVVEERECNVTEEEIREAIFSFVGEYDQVPPAYSAKKYKGERLYKLAREGKIINLPPKRVKIFKIWDVNIEGRDVSFRVEVSPGTYIRSLCMDIGYKLGCGATAVELVRESVGPHTIEESLNVFEAAPEEIENRIIPLEKCLEWLPRVVVHQESTKMILNGSQIHLEMLKEWDGFKKGEVVRVFNEEGRLLALAEAERNSSFLETLRKHERQERVLTLRKVFQTR"
  soluble on expression in E. coli: "soluble"
- sequence string: "MASYTSEQAEALLKLQFDKYAKFIDDEVWAEVEGYYHPSGVLVHKGKEAVYGNKDKSTYIAKFAEGTGKSVGTTTNAKYEGSGDYLIITADFSSETEKAGTVKGRFVQI"
  soluble on expression in E. coli: "not soluble"
- sequence string: "MAHHHHHHMIKRYLKIYPSIYFTKHVYTAPEIDGSKDLLKKDYVFNQYVNKKEIFLNNKLKKGNCENEIKRIYYFKLWNAMVEHNFTLFENIIQQYLNEGYKYDEVIYSIMTHAYILNHKKKNENAYLVIEEMKRAFMHPIIIKINERMINCFLELELIFCEPSKSLWINVCRFIWESSIKLNRERRRKLKEKLNLLEPNQVLKLTKEDVKKLVKKEYEETLLSMMDTLSLDGEDPYDHILIDRKENYMKIENQKDGNFFPSNGNELTCLNNNHIYNDHINYLKGNIENDTSENVNSFMFSILNEGKNKTTEQEINYQDDYNLNNNDYMTKITNINSDNNIMMNMENEHMYETDEKDEHYESFDDAEDFDIQLLKKYYNLK"
  soluble on expression in E. coli: "not soluble"
